src = patent US12441726B2

- target: BRG-1 (Homo sapiens, UniProt P51532)
- Sequence (P51532 whole entry): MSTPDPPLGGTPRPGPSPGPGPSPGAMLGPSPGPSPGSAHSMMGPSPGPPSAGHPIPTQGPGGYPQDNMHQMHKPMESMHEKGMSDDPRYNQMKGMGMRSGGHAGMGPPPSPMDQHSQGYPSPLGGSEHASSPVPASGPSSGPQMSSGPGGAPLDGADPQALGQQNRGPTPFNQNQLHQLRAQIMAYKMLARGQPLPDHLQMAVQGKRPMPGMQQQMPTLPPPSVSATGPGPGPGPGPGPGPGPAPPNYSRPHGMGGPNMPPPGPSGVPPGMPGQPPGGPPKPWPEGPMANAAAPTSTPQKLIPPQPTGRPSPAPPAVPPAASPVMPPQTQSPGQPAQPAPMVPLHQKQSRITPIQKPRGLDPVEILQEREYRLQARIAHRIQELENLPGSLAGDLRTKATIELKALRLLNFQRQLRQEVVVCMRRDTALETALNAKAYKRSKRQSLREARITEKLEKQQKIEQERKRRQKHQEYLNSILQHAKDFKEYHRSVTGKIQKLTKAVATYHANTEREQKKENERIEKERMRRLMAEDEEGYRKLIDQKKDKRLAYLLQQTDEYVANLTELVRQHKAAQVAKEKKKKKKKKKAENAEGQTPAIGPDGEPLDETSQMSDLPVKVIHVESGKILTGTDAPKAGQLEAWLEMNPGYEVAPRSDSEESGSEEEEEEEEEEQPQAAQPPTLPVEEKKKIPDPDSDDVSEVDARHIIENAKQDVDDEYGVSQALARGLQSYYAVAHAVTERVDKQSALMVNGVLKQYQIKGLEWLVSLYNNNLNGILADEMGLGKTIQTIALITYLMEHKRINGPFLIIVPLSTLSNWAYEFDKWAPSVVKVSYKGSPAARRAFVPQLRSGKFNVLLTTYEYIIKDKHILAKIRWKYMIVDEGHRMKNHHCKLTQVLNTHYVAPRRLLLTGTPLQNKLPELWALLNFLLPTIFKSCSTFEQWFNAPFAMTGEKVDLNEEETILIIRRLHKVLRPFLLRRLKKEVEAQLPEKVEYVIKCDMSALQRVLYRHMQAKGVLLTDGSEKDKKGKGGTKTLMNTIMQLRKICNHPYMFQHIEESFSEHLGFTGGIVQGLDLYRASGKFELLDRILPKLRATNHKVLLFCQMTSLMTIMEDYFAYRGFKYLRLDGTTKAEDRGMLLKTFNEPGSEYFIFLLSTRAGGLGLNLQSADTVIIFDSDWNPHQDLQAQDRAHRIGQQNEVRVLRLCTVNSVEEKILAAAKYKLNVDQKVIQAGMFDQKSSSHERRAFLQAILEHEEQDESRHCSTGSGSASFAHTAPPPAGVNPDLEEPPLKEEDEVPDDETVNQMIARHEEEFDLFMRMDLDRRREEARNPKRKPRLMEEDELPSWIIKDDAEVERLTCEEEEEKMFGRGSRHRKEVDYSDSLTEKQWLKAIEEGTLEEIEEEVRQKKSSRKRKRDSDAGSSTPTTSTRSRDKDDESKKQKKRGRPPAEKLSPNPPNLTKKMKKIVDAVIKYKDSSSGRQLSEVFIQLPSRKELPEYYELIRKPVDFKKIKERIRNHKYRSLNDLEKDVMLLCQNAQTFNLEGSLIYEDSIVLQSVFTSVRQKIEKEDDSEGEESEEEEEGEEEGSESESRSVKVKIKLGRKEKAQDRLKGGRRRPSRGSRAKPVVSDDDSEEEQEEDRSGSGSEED
- procedure.details: ATPase catalytic activity assay (ADP-Glo), BRG-1
- test.parameters: 1 h, read-out: BRG1 Max % Inhibition, ADP-Glo, 30 nM BRG-1, 400 μM ATP
Field 'label' (enum: True / False). Set to True when Emax is strictly under 80%; else False.

Example entries begin here.
Threshold test, Emax < 80%: C[C@@]1(C#N)COCc2ccc(C(=O)NCc3cc4nn(-c5cccc(N6CCC6)n5)cc4cn3)cc21 [Compound 166]
True

Threshold test, Emax < 80%: COC(=O)c1cccc(C#Cc2ccnc(CNC(=O)c3ccc4c(c3)[C@](C)(C#N)CO4)c2)c1 [Compound 37]
True

Threshold test, Emax < 80%: [2H]C1([2H])OCc2ncc(C(=O)NCc3cc4nc(-c5cncc(C6CC6)n5)ccc4cn3)cc2[C@]1(C)F [Compound 222]
False

Threshold test, Emax < 80%: COc1cccc([C@H]2C[C@H](c3ccnc(CNC(=O)c4ccc5c(c4)[C@](C)(C#N)COC5)c3)C2)c1 [Compound 74]
False

Next, consider the following molecule.
Threshold test, Emax < 80%: C[C@@]1(C#N)COCc2ccc(C(=O)NCc3cc(N4CCc5ccccc5C4)cnn3)cc21 [Compound 75]
True

###

- target: UniProt P51532
- procedure.details: ATPase catalytic activity assay (ADP-Glo), BRG-1
- test.parameters: 1 h, read-out: BRG1 Max % Inhibition, ADP-Glo, 30 nM BRG-1, 400 μM ATP
property.name: Emax
Give the figure together with its unit, number first.

Recorded results for 3 compounds are shown here.
Fetch value of Emax on UniProt P51532 for C[C@@]1(F)COCc2ccc(C(=O)NCc3cc4nc(-c5cncc(C6CC6)n5)ccc4nn3)cc21 [Compound 255] .
90%

Fetch value of Emax on UniProt P51532 for C[C@@]1(C#N)COCc2c(F)cc(C(=O)NCc3cc4cc(-c5cncc(N6CCC6)n5)ccc4cn3)cc21 [Compound 270] .
98%

Fetch value of Emax on UniProt P51532 for C[C@@]1(C#N)COCc2ccc(C(=O)NCc3cc([C@H]4C[C@@H]4c4ccccc4)ccn3)cc21 [Compound 7] .
12%

# ---- query compound ----
Fetch value of Emax on UniProt P51532 for C[C@@]1(C#N)COCc2ccc(C(=O)NCc3cc4nc(-c5cccc(N6CCC6)c5)ccc4cn3)cc21 [Compound 126] .
51%

###

Please go through the items and note down their pIC50.
- target: BRG-1 (Homo sapiens)
- procedure.details: ATPase catalytic activity assay (ADP-Glo), BRG-1
pIC50: −log10 of the molar value.

Recorded results for 5 molecules are shown here.
Using the record for C[C@@]1(C#N)COCc2ccc(C(=O)NCc3cc4nc(-c5cn(C6COC6)nc5C(F)F)ccc4cn3)cc21 [Compound 145] , state its measured pIC50.
6.00 to 6.30

Using the record for COc1cc(C)ccc1-c1ccc2cnc(CNC(=O)c3ccc4c(c3)[C@](C)(C#N)COC4)cc2n1 [Compound 144] , state its measured pIC50.
6.30 to 7.00

Using the record for Cc1nn(-c2ccc3cnc(CNC(=O)c4ccc5c(c4)[C@](C)(C#N)COC5)cc3n2)cc1F [Compound 433] , state its measured pIC50.
6.00 to 6.30

Using the record for C[C@@]1(F)COCc2ccc(C(=O)NCc3cc4cc(-c5ccnn(C6CC6)c5=O)ccc4cn3)cc21 [Compound 257] , state its measured pIC50.
6.00 to 6.30

Using the record for CN(C)C(=O)c1cccc(-c2ccc3cnc(CNC(=O)c4ccc5c(c4)[C@](C)(C#N)COC5)cc3n2)c1 [Compound 490] , state its measured pIC50.
< 6.00

List pIC50 for every entry below, keeping the order given.
1. COc1cnccc1-c1ccc2cnc(CNC(=O)c3ccc4c(c3)[C@](C)(C#N)COC4)cc2n1 [Compound 507]
2. C[C@@]1(C#N)COCc2ccc(C(=O)NCc3cc4nc(-c5cccc(N6CCC6)c5)ccc4cn3)cc21 [Compound 126]
3. COCCNC(=O)c1ccc(-c2ccc3cnc(CNC(=O)c4ccc5c(c4)[C@](C)(C#N)COC5)cc3n2)cc1 [Compound 323]
4. CN(C)c1cccn(-c2ccc3cnc(CNC(=O)c4ccc5c(c4)[C@](C)(C#N)COC5)cc3n2)c1=O [Compound 281]

["6.30 to 7.00", "< 6.00", "6.00 to 6.30", "< 6.00"]

List pIC50 for every entry below, keeping the order given.
1. COc1ccc(C)cc1-c1ccc2cnc(CNC(=O)c3ccc4c(c3)[C@](C)(C#N)COC4)cc2n1 [Compound 153]
2. C[C@@]1(C#N)COCc2ccc(C(=O)NCc3cc4nc(-c5ccnc(N6CCC6)c5F)sc4cn3)cc21 [Compound 235]
3. CN(C)c1cccc(-c2ccc3cnc(CNC(=O)c4ccc5c(c4)[C@](C)(F)COC5)cc3n2)n1 [Compound 248]
4. COC1CN(C(=O)c2cccc(-c3ccc4cnc(CNC(=O)c5ccc6c(c5)[C@](C)(C#N)COC6)cc4n3)c2)C1 [Compound 445]
5. CC(C)n1ccc2c(-c3ccc4cnc(CNC(=O)c5ccc6c(c5)[C@](C)(C#N)COC6)cc4n3)cccc21 [Compound 174]
6. C[C@@]1(C#N)COCc2ccc(C(=O)NCc3cc(/C=C/c4ccccc4)ccn3)cc21 [Compound 4]

< 6.00
6.30 to 7.00
6.30 to 7.00
6.00 to 6.30
6.30 to 7.00
< 6.00

List pIC50 for every entry below, keeping the order given.
1. C[C@@]1(F)COCc2ccc(C(=O)NCc3cc4nc(-c5cccc(C6(O)CCOC6)n5)ccc4cn3)cc21 (some centres unmarked) [Compound 249]
2. COC(=O)c1cccc(C#Cc2ccnc(CNC(=O)c3ccc4c(c3)[C@](C)(C#N)CCN4)c2)c1 [Compound 39]
3. CC(=O)N(C)c1cccc(-c2ccc3cnc(CNC(=O)c4ccc5c(c4)[C@](C)(C#N)COC5)cc3n2)n1 [Compound 396]

6.00 to 6.30
< 6.00
< 6.00

List pIC50 for every entry below, keeping the order given.
1. C[C@@]1(C#N)COCc2ccc(C(=O)NCc3cc4nc(-c5cccc(C(F)F)c5)ccc4cn3)cc21 [Compound 98]
2. COc1ccccc1N1CCc2cnc(CNC(=O)c3ccc4c(c3)[C@](C)(C#N)COC4)cc2C1 [Compound 250]
3. C[C@@]1(C#N)COCc2ccc(C(=O)NCc3cc(N4Cc5ccncc5C4)ccn3)cc21 [Compound 53]
4. C[C@@]1(O)COCc2ccc(C(=O)NCc3cc4nc(-c5ccccc5)sc4cn3)cc21 [Compound 119]
5. COCCOCCNC(=O)c1cccc(-c2ccc3cnc(CNC(=O)c4ccc5c(c4)[C@](C)(C#N)COC5)cc3n2)c1 [Compound 316]
6. COc1ncccc1-c1ccc2nnc(CNC(=O)c3ccc4c(c3)[C@](C)(C#N)COC4)cc2c1 [Compound 357]
7. COC1(c2cccc(-c3ccc4cnc(CNC(=O)c5ccc6c(c5)[C@](C)(C#N)COC6)cc4n3)c2)COC1 [Compound 418]
8. COc1nn(C)cc1-c1ccc2cnc(CNC(=O)c3ccc4c(c3)[C@](C)(C#N)COC4)cc2c1 [Compound 367]

1. < 6.00
2. < 6.00
3. < 6.00
4. < 6.00
5. < 6.00
6. 6.30 to 7.00
7. < 6.00
8. 6.30 to 7.00
